Recorded values, source ChEMBL document CHEMBL4342527.

# key: entry, value: MIC80
- Test system: Candida albicans
- MEASUREMENT_NOTES: Antifungal activity against azole-resistant Candida albicans 0304103 after 48 hrs by spectrophotometry-based serial microdilution method
- Assay type: functional
- ASSAY_SETUP: Candida albicans, 0304103, 48 h
# unit: µg/mL | format: bare number

- COMPOUND: "O=C(Cc1ccc(OCCCOc2ccc(CN(CC(O)(Cn3cncn3)c3ccc(F)cc3F)C3CC3)cc2)cc1)NO (racemic)"
  VALUE_TYPE: "MIC80"
  U: "µg/mL"
  ASSAY_VALUE: 8
- COMPOUND: "O=C(NO)c1ccc(OCCCc2ncnn2CC(O)(Cn2cncn2)c2ccc(F)cc2F)cc1 (racemic)"
  VALUE_TYPE: "MIC80"
  U: "µg/mL"
  ASSAY_VALUE: 32
- COMPOUND: "CCN(Cc1ccc(OCCCOc2ccc(CC(=O)NO)cc2)cc1)CC(O)(Cn1cncn1)c1ccc(F)cc1F (racemic)"
  VALUE_TYPE: "MIC80"
  U: "µg/mL"
  ASSAY_VALUE: 1

What measured MIC80 goes with CN(Cc1ccc(CCCC(=O)Nc2ccc(CC(=O)NO)cc2)cc1)CC(O)(Cn1cncn1)c1ccc(F)cc1F (racemic) ?
1

* * *

- Test system: Candida albicans
- MEASUREMENT_NOTES: Antifungal activity against azole-resistant Candida albicans 0304103 after 48 hrs by spectrophotometry-based serial microdilution method
- Format: functional
- ASSAY_SETUP: Candida albicans, 0304103, 48 h
VALUE_TYPE: MIC80 (µg/mL)
Output spec: scalar in µg/mL, unitless text.

- MOLECULE: "CN(Cc1ccccc1OCCCOc1ccc(CCC(=O)NO)cc1)CC(O)(Cn1cncn1)c1ccc(F)cc1F (racemic)"
  VALUE_TYPE: "MIC80"
  ASSAY_VALUE: 1

// returns reported MIC80 for input CN(Cc1ccc(-n2cnn(CCCCCC(=O)NO)c2=O)cc1)CC(O)(Cn1cncn1)c1ccc(F)cc1F (racemic)
16

Request the reported MIC80 associated with CN(Cc1ccc(-n2cnn(CCOc3ccc(CC(=O)NO)cc3)c2=O)cc1)CC(O)(Cn1cncn1)c1ccc(F)cc1F (racemic)
4

Reported MIC80 for CN(Cc1ccc(OCCCOc2ccc(C(=O)NO)cc2)cc1)CC(O)(Cn1cncn1)c1ccc(F)cc1F (racemic) : what is it?
0.5

* * *

Below, each of the compounds is paired with its reported log10(MIC80) value.
- Tested on: Candida albicans
- MEASUREMENT_NOTES: Antifungal activity against azole-resistant Candida albicans 0304103 after 48 hrs by spectrophotometry-based serial microdilution method
- Assay type: functional
- ASSAY_SETUP: Candida albicans, 0304103, 48 h
# values: log10(MIC80), units µg/mL

Some solved entries appear below for comparison.
- COMPOUND: "CN(Cc1ccccc1OCCCOc1ccc(CC(=O)NO)cc1)CC(O)(Cn1cncn1)c1ccc(F)cc1F (racemic)"
  log10(MIC80): 0.30
- COMPOUND: "CN(Cc1ccc(-n2cnn(CCCC(=O)NO)c2=O)cc1)CC(O)(Cn1cncn1)c1ccc(F)cc1F (racemic)"
  log10(MIC80): 1.81
- COMPOUND: "CN(Cc1ccc(-n2cnn(CCCCC(=O)NO)c2=O)cc1)CC(O)(Cn1cncn1)c1ccc(F)cc1F (racemic)"
  log10(MIC80): 1.81
- COMPOUND: "CN(Cc1ccc(-n2cnn(CCCCCCC(=O)NO)c2=O)cc1)CC(O)(Cn1cncn1)c1ccc(F)cc1F (racemic)"
  log10(MIC80): 1.20
- COMPOUND: "CN(Cc1cccc(OCCCOc2ccc(CCC(=O)NO)cc2)c1)CC(O)(Cn1cncn1)c1ccc(F)cc1F (racemic)"
  log10(MIC80): 0.90

// below: log10(MIC80) requested for another compound
Reported log10(MIC80) for CN(Cc1ccc(OCCCCCCC(=O)NO)cc1)CC(O)(Cn1cncn1)c1ccc(F)cc1F (racemic) : what is it?
0.00
